Recorded Enzyme degradation CDK2 (% remaining) @ 1 μM by entry
- system.under.test: CDK2 (Homo sapiens, UniProt P24941)
- Construct: endogenous in cells; host or cells: MDA-MB-231
- test.details: CDK protein degradation activity (Western blotting), CDK2
- Type: cell-based
- protocol.conditions: MDA-MB-231 cells, 1 μM, 16 hours, Western blot

# molecule, result
records = [
    ("O=C1CC[C@H](n2nnc3ccc(N4CCC(CN5CCN(c6ccc(Nc7ncnc8c7ncn8C7CC(NC(=O)c8c(Cl)cccc8Cl)C7)cc6)CC5)CC4)cc3c2=O)C(=O)N1 (stereo partly drawn)", "0/0/0%"),
    ("O=C1CC[C@H](N2C(=O)c3ccc(N4CCC(C(=O)N5CCC(CCN6CCN(c7ccc(Nc8ncnc9c8ncn9C8CC(NC(=O)c9c(Cl)cccc9Cl)C8)cc7)CC6)CC5)CC4)cc3C2=O)C(=O)N1 (stereo partly drawn)", "20%"),
    ("O=C1CC[C@@H](c2cccc(OCC(=O)N3CCC(CN4CCN(c5ccc(Nc6ncnc7c6ncn7C6CC(NC(=O)Cc7ccccc7)C6)cc5)CC4)CC3)c2)C(=O)N1 (stereo partly drawn)", "20%"),
]

Task: Requested read-out: Enzyme degradation CDK2 (% remaining) @ 1 μM. Entry: O=C1CCC(n2nnc3ccc(N4CC(N5CCN(c6ccc(Nc7ncnc8c7ncn8[C@H]7C[C@@H](NC(=O)Cc8ccccc8)C7)cc6)CC5)C4)cc3c2=O)C(=O)N1 (stereo partly drawn)
Output: 0%

Task: Requested read-out: Enzyme degradation CDK2 (% remaining) @ 1 μM. Entry: O=C1CC[C@H](N2C(=O)c3ccc(NCC(=O)N4CCC5(CC4)CC(N4CCN(c6ccc(Nc7ncnc8c7ncn8C7CC(NC(=O)c8c(Cl)cccc8Cl)C7)cc6)CC4)C5)cc3C2=O)C(=O)N1 (stereo partly drawn)
Output: 20%

Task: Requested read-out: Enzyme degradation CDK2 (% remaining) @ 1 μM. Entry: "O=C1CC[C@H](N2C(=O)c3ccc(OCC(=O)N4CCN(CCCN5CCN(c6ccc(Nc7ncnc8c7ncn8[C@H]7C[C@@H](NC(=O)Cc8ccccc8)C7)cc6)CC5)CC4)cc3C2=O)C(=O)N1"
Output: 80%

Task: Requested read-out: Enzyme degradation CDK2 (% remaining) @ 1 μM. Entry: "O=C1CC[C@H](N2C(=O)c3cccc(N4CCC(CN5CCN(c6ccc(Nc7ncnc8c7ncn8[C@H]7C[C@@H](NC(=O)c8c(Cl)cccc8Cl)C7)cc6)CC5)CC4)c3C2=O)C(=O)N1"
Output: 40%

Task: Requested read-out: Enzyme degradation CDK2 (% remaining) @ 1 μM. Entry: O=C1CC[C@H](n2nnc3ccc(N4CCC(CN5CCC(CCNc6ncnc7c6ncn7C6CC(NC(=O)Cc7ccccc7)C6)CC5)CC4)cc3c2=O)C(=O)N1 (stereo partly drawn)
Output: 20%

Task: Requested read-out: Enzyme degradation CDK2 (% remaining) @ 1 μM. Entry: Cc1cccc(C(=O)NC2CC(n3cnc4c(NCc5cccc(N6CCN(CC7CCN(C(=O)CNc8cccc9c8C(=O)N([C@H]8CCC(=O)NC8=O)C9=O)CC7)CC6)c5)ncnc43)C2)n1 (stereo partly drawn)
Output: 50%

Task: Requested read-out: Enzyme degradation CDK2 (% remaining) @ 1 μM. Entry: "O=C1CC[C@H](N2C(=O)c3cccc(N4CC(N5CCC6(CC5)CC(N5CCN(c7ccc(Nc8ncnc9c8ncn9[C@H]8C[C@@H](NC(=O)Cc9ccccc9)C8)cc7)CC5)C6)C4)c3C2=O)C(=O)N1"
Output: 30%

Task: Requested read-out: Enzyme degradation CDK2 (% remaining) @ 1 μM. Entry: N#Cc1cccc(C(=O)NC2CC(n3cnc4c(Nc5ccc(N6CCN(CC7CCN(c8ccc9c(c8)C(=O)N([C@H]8CCC(=O)NC8=O)C9=O)CC7)CC6)cc5)ncnc43)C2)n1 (stereo partly drawn)
Output: 0%

###

Recorded Enzyme degradation CDK9 (% remaining) @ 10 μM by entry
- system.under.test: CDK9 (Homo sapiens, UniProt P50750)
- Construct: endogenous in cells; host or cells: MDA-MB-231
- Sequence (P50750 whole entry): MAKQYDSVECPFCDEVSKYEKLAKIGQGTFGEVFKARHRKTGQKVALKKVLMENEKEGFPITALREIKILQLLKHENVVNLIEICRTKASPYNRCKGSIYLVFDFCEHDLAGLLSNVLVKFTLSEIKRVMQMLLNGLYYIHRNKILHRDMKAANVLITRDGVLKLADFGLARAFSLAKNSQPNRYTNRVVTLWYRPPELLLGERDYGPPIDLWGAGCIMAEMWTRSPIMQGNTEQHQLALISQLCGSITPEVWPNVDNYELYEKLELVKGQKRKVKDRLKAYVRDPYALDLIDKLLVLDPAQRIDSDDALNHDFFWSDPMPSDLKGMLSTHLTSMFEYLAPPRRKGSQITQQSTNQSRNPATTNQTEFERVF
- test.details: CDK protein degradation activity (Western blotting), CDK9
- Format: cell-based
- protocol.conditions: MDA-MB-231 cells, 10 μM, 16 hours, Western blot
Answer with a number only, understood to be in %.

# compound, numeric.result
rows = [
    ("O=C1CC[C@H](N2C(=O)c3ccc(N4CCC(CN5CCC(CNc6ncnc7c6ncn7C6CC(NC(=O)Cc7ccccc7)C6)CC5)CC4)cc3C2=O)C(=O)N1 (stereo partly drawn)", 0),
]

The record that follows has no Enzyme degradation CDK9 (% remaining) @ 10 μM shown yet.
Task: Requested read-out: Enzyme degradation CDK9 (% remaining) @ 10 μM. Entry: O=C1CC[C@H](N2C(=O)c3ccc(OCC(=O)N4CCC(CN5CCN(c6ccc(Nc7ncnc8c7ncn8C7CC(NC(=O)Cc8ccccc8)C7)cc6)CC5)CC4)cc3C2=O)C(=O)N1 (stereo partly drawn)
Output: 0

###

Recorded Enzyme degradation CDK2 (% remaining) @ 1 μM by entry
- system.under.test: CDK2 (Homo sapiens, UniProt P24941)
- Construct: endogenous in cells; host or cells: MDA-MB-231
- test.details: CDK protein degradation activity (Western blotting), CDK2
- Format: cell-based
- protocol.conditions: MDA-MB-231 cells, 1 μM, 16 hours, Western blot

# molecule, result
measured = [
    ("Cc1cccc(C(=O)NC2CC(n3cnc4c(Nc5ccc(N6CCN(CCC7CCN(C(=O)C8CN(c9ccc%10c(c9)C(=O)N([C@H]9CCC(=O)NC9=O)C%10=O)C8)CC7)CC6)cc5)ncnc43)C2)n1 (stereo partly drawn)", "40/40/40%"),
]

Task: Missing value: Enzyme degradation CDK2 (% remaining) @ 1 μM, CDK2 (Homo sapiens, UniProt P24941), entry O=C1CC[C@H](N2C(=O)c3ccc(N4CCC(C(=O)N5CCC(CN6CCN(c7ccc(Nc8ncnc9c8ncn9C8CC(NC(=O)Cc9ccccc9)C8)cc7)CC6)CC5)CC4)cc3C2=O)C(=O)N1 (stereo partly drawn) . Fill in?
Output: 60%

Task: Missing value: Enzyme degradation CDK2 (% remaining) @ 1 μM, CDK2 (Homo sapiens, UniProt P24941), entry "O=C1CC[C@@H](c2ccc(OCC(=O)N3CCC(CCCN4CCN(c5ccc(Nc6ncnc7c6ncn7[C@H]6C[C@@H](NC(=O)Cc7ccccc7)C6)cc5)CC4)CC3)cc2)C(=O)N1" . Fill in?
Output: 20/20/20%

Task: Missing value: Enzyme degradation CDK2 (% remaining) @ 1 μM, CDK2 (Homo sapiens, UniProt P24941), entry "O=C1CC[C@H](N2C(=O)c3ccc(N4CC(C(=O)N5CCC(CN6CCC(CCNc7ncnc8c7ncn8[C@H]7C[C@@H](NC(=O)Cc8ccccc8)C7)CC6)CC5)C4)cc3C2=O)C(=O)N1" . Fill in?
Output: 40/40/40%

Task: Missing value: Enzyme degradation CDK2 (% remaining) @ 1 μM, CDK2 (Homo sapiens, UniProt P24941), entry O=C1CC[C@@H](c2ccc(OCC(=O)N3CCC(CN4CCN(c5ccc(Nc6ncnc7c6ncn7C6CC(NC(=O)c7cccc(C(F)(F)F)n7)C6)cc5)CC4)CC3)cc2)C(=O)N1 (stereo partly drawn) . Fill in?
Output: 30/30/30%

Task: Missing value: Enzyme degradation CDK2 (% remaining) @ 1 μM, CDK2 (Homo sapiens, UniProt P24941), entry O=C1CC[C@H](N2C(=O)c3cc(F)c(N4CCC(CN5CCN(c6ccc(Nc7ncnc8c7ncn8C7CC(NC(=O)c8cccc(F)n8)C7)cc6)CC5)CC4)cc3C2=O)C(=O)N1 (stereo partly drawn) . Fill in?
Output: 10/10/10%

Task: Missing value: Enzyme degradation CDK2 (% remaining) @ 1 μM, CDK2 (Homo sapiens, UniProt P24941), entry "COc1ccc(C(=O)NC[C@H]2CC[C@H](CN3CCN(c4ccc(Nc5ncnc6c5ncn6[C@H]5C[C@@H](NC(=O)Cc6ccccc6)C5)cc4)CC3)CC2)cc1N1CCC(=O)NC1=O" . Fill in?
Output: 0/0/0%

Task: Missing value: Enzyme degradation CDK2 (% remaining) @ 1 μM, CDK2 (Homo sapiens, UniProt P24941), entry "O=C1CC[C@H](N2C(=O)c3cccc(CCCCN4CCC(CN5CCN(c6ccc(Nc7ncnc8c7ncn8[C@H]7C[C@@H](NC(=O)c8cccc(C(F)(F)F)n8)C7)cc6)CC5)CC4)c3C2=O)C(=O)N1" . Fill in?
Output: 20/20/20%

Task: Missing value: Enzyme degradation CDK2 (% remaining) @ 1 μM, CDK2 (Homo sapiens, UniProt P24941), entry O=C1CC[C@H](N2C(=O)c3cccc(NCC(=O)N4CCC(CN5CCN(c6ccc(Nc7ncnc8c7ncn8C7CC(NC(=O)c8cccc(Cl)n8)C7)cc6)CC5)CC4)c3C2=O)C(=O)N1 (stereo partly drawn) . Fill in?
Output: 10/10/10%

###

- system.under.test: CDK2 (Homo sapiens, UniProt P24941)
- Construct: endogenous in cells; host or cells: MDA-MB-231
- test.details: CDK protein degradation activity (Western blotting), CDK2
- Format: cell-based
- protocol.conditions: MDA-MB-231 cells, 10 μM, 16 hours, Western blot
Recorded Enzyme degradation CDK2 (% remaining) @ 10 μM by entry

Task: Requested read-out: Enzyme degradation CDK2 (% remaining) @ 10 μM. Entry: O=C(Cc1cccc(NC2=CC(=O)N(C3CCC(=O)NC3=O)C2=O)c1)NC[C@H]1CC[C@H](CN2CCN(c3ccc(Nc4ncnc5c4ncn5[C@H]4C[C@@H](NC(=O)Cc5ccccc5)C4)cc3)CC2)CC1 (stereo partly drawn)
Output: 100/100/100%

Task: Requested read-out: Enzyme degradation CDK2 (% remaining) @ 10 μM. Entry: O=C1CC[C@H](n2nnc3ccc(N4CCN(CC5CCN(c6ccc(Nc7ncnc8c7ncn8C7CC(NC(=O)c8c(Cl)cccc8Cl)C7)cc6)CC5)CC4)cc3c2=O)C(=O)N1 (stereo partly drawn)
Output: 0/0/0%

Task: Requested read-out: Enzyme degradation CDK2 (% remaining) @ 10 μM. Entry: Cc1cccc(C(=O)NC2CC(n3cnc4c(NCc5ccc(N6CCN(CC7CCN(C(=O)CNc8ccc9c(c8)C(=O)N([C@H]8CCC(=O)NC8=O)C9=O)CC7)CC6)cc5)ncnc43)C2)n1 (stereo partly drawn)
Output: 10/10/10%
